# measurement_parameters: 298.15 K; 101 kPa; Liquid
Checkbox rule: viscosity lower than 2 mPa·s = fulfilled; viscosity not lower than 2 mPa·s = not fulfilled.

For orientation, consider the following solved cases.
Query :: In the record for `C1CCCC1` , is viscosity less than 2 mPa·s?
Result :: fulfilled

Query :: Problem: For the molecule `C1CCCCC1` , is viscosity under 2 mPa·s?
Result :: fulfilled

Query :: Input `CCCO` ; condition: viscosity strictly below 2 mPa·s. Does it hold?
Result :: fulfilled

Query :: viscosity under 2 mPa·s? Item: `CCO`
Result :: fulfilled

Further cases:
Query :: Answer whether the molecule `CCCCO` has viscosity strictly less than 2 mPa·s
Result :: not fulfilled

###

# measurement_parameters: 298.15 K; 101 kPa; Liquid
measurement_type: mass density (kg/m3)
Field format: number, assumed kg/m3, no unit text.

Query :: For the compound `C1CCCC1` , what mass density is on record?
Result :: 739.55

Query :: Suppose we examine the compound `C1CCCCC1` ; what mass density value has been reported?
Result :: 773.92

Query :: Consider the compound shown here: `CCCCO` What is its recorded mass density?
Result :: 805.75

Query :: # get_value(readout='mass density', item= `CCCO` )
Result :: 799.58

From here, focus on the item given below.
Query :: Fill in the blank: the reported mass density of `CCO` is ____.
Result :: 785.46

###

# measurement_parameters: 293.15 K; 101 kPa; Liquid
Answer f if viscosity is under 1 mPa·s, and t if it is 1 mPa·s or more.

Example entries begin here.
Query :: Is viscosity at least 1 mPa·s? Consider `CCCCO`
Result :: t

Query :: Record `CCO` ; criterion: viscosity no lower than 1 mPa·s. Met?
Result :: t

Query :: Quick check, viscosity >= 1 mPa·s? `C1CCCC1`
Result :: f

Query :: Is viscosity at least 1 mPa·s? Consider `CCCO`
Result :: t

Note: attention shifts to another entry.
Query :: Decide: viscosity of `C1CCCCC1` >= 1 mPa·s?
Result :: f

###

# measurement_parameters: 303.15 K; 101 kPa; Liquid
measurement_type: speed of sound (m/s)
Number in m/s, nothing else.

Query :: Which speed of sound value is on record for CCO [ethanol] ?
Result :: 1128

Query :: Query: speed of sound; subject: C1CCCC1 [cyclopentane]
Result :: 1180

Query :: Request the reported speed of sound associated with CCCO [propan-1-ol]
Result :: 1189

Query :: Would you kindly share the measured speed of sound for C1CCCCC1 [cyclohexane] ?
Result :: 1230

Continuing:
Query :: Which measured speed of sound value corresponds to CCCCO [butan-1-ol] ?
Result :: 1224

###

# measurement_parameters: 298.15 K; 101 kPa; Liquid
± gives the expanded uncertainty stated by the source.
measurement_type: speed of sound
State the value with its unit after it.

In the examples that follow, each entry is paired with its recorded speed of sound.
Query :: I would be grateful if you could share the reported speed of sound for `C1CCCCC1` .
Result :: 1254 ± 3 m/s

Query :: Looking for the measured speed of sound of `CCCCO` , can you help?
Result :: 1240 ± 2 m/s

Query :: Tell me the measured speed of sound of `C1CCCC1` , please.
Result :: 1206 ± 2 m/s

Query :: Look up speed of sound: `CCO`
Result :: 1145 ± 2 m/s

Now let's try a different one.
Query :: Tell me the measured speed of sound of `CCCO` , please.
Result :: 1206 ± 2 m/s
